Let's look at some compounds and their measured pIC50.
- System: blood cancer cell lines (e.g. HL-60, Jurkat, Raji, Ramos, Daudi, MOLT-4)
- assay-method-text: Cell based assay, cell viability (CellTiter-Glo), blood cancer cell lines
- test-context: Homo sapiens, blood cancer cell line Jurkat, 72 hours, read-out: IC50, Jurkat
pIC50: −log10 of the molar value.

Here's what some known entries look like.
CC(=O)c1c([S+]([O-])C(C)c2ccccc2)[nH]c2c(Br)ccc(Cl)c2c1=O (centres unmarked) ... 5.75
CC(=O)c1c([S+]([O-])Cc2nonc2C)[nH]c2c(Br)ccc(Cl)c2c1=O (centres unmarked) ... < 5.70
COc1ccccc1Sc1[nH]c2c(Br)ccc(Cl)c2c(=O)c1C(C)=O ... < 5.70

Ask: Please give the measured pIC50 for this compound: CC(=O)c1c(SC(C)C)[nH]c2c(Br)ccc(Cl)c2c1=O
Result: < 5.70

Ask: Name the reported pIC50 value associated with the compound CC(=O)c1c([S+](C)[O-])[nH]c2c(Cl)ccc(Cl)c2c1=O (centres unmarked)
Result: < 5.70
